assay_target: T1, mouse Siglec-15, full length, expressed on HEK293T cells (mouse)
T1 construct: also called mS15; HEK293T cells expressing mouse Siglec-15
T1 chain: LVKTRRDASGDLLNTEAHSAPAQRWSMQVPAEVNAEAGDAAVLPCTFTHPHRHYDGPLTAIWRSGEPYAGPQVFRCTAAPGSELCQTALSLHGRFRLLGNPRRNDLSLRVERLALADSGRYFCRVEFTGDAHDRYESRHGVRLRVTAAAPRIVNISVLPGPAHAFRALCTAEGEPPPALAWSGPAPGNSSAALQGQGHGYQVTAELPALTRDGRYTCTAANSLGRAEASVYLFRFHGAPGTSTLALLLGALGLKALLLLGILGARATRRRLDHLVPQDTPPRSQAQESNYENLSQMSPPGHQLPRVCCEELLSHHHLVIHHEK
experiment_description: IgG1 titration, flow cytometry on HEK293T cells expressing mouse Siglec-15
measured_parameter: EC50 (µg/mL)
Field: numeric (µg/mL). Do not append units.

Any idea what EC50 was measured for ZLA-1212-B05 (antibody, V domains shown, Fully human, from phage display; also called clone ZLA-1212-B05) VH: QVQLVQSGGGVVQPGRSLRLSCAASGFTFSSYAMHWVRQAPGKGLEWVAVISYDGSNKYYADSVKGRFTISRDNSKNTLYLQMNSLRAEDTAVYYCAREGGSYYGYFDYWGQGTLVTVSS VL: QSVLTQPPSVSVAPGKTARITCGGNNIGSKSVHWYQQKPGQAPVLVIYDDSDRPSGIPERFSGSNSGNTATLTISRVEAGDEADYYCQVWDSSSDHRVFGGGTKLTVL ?
0.168

Any idea what EC50 was measured for ZLA-1214-H05 (antibody, V domains shown, Fully human, from phage display) VH: QVQLVQSGAEVKKPGASVKVSCKASGYTFTSYGISWVRQAPGQGLEWMGWISAYNGNTNYAQKLQGRVTMTTDTSTSTAYMELRSLRSDDTAVYYCARMSGYYGMDVWGQGTLVTVSS VL: DIQLTQSPSSLSASVGDRVTITCQASQGISNYLNWYQQKPGKAPKLLIYDASNLETGVPSRFSGSGSGTDFTFTISSLQPEDIATYYCQQYDNLPLTFGGGTKLEIK ?
0.561

Any idea what EC50 was measured for ZLA-1243-E01 (antibody, V domains shown, Fully human, from phage display) VH: QVQLVQSGGGLVQPGRSLRLSCAASGFTFDDYAMHWVRQAPGKGLEWVSGISWNSGSIGYADSVKGRFTISRDNAKNSLYLQMNSLRAEDTALYYCAKGLWPSYDLDAFDIWGQGTMVTVSS VL: QSALTQPASVSGSPGQSITLSCTGTSSDVGAYNFVSWYQQHPGTAPKLMIYEVSNRPSGVSDRFSGSKSGNTASLTISGLQAEDEADYYCSSYTSTIPPFVFGTGTKVTVL ?
0.0849

Any idea what EC50 was measured for ZLA-1212-E09 (antibody, V domains shown, also called clone ZLA-1212-E09) VH: QVQLVQSGGGVVQPGRSLRLSCAASGFTFSSYGMHWVRQAPGKGLEWVAVISYDGSNKYYADSVKGRFTISRDNSKNTLYLQMNSLRAEDTAVYYCAKDDSGYYDSSGYDYWGQGTLVTVSS VL: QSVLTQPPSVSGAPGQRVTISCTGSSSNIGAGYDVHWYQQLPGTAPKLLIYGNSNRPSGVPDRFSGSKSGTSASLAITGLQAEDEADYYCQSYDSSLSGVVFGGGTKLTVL ?
0.191
